Cited source for all entries: ChEMBL document CHEMBL3861993

EC90 by entry:
Test system: Nonstructural protein 5A (Hepatitis C virus), Q5L478 [Y93H]
Assay: Inhibition of HCV genotype 1a NS5A Y93H mutant after 3 day incubation by RT-PCR-cell-based HCV replicon assay
Conditions: Hepatitis C virus subtype 1a
Provide only the numeric value, understood in nM.

// query Any idea what EC90 was measured for COC(=O)N[C@H](C(=O)N1CCC[C@H]1c1ncc(-c2ccc3c(c2)Oc2ccc(-c4cnc([C@@H]5CCCN5C(=O)[C@@H](NC(=O)OC)C(C)C)[nH]4)c4ccn-3c24)[nH]1)C(C)C ?
// result 122

// query Query (molecule): COC(=O)N[C@H](C(=O)N1CCC[C@H]1c1ncc(-c2ccc3c(c2)Oc2ccc(-c4cnc([C@@H]5CCCN5C(=O)[C@@H](NC(=O)OC)C(C)C)[nH]4)c4cnn-3c24)[nH]1)C(C)C ; field requested: EC90
// result 124

// query Would you mind telling me what EC90 value was observed for COC(=O)N[C@H](C(=O)N1CCC[C@H]1c1ncc(-c2ccc3c(c2)Oc2ccc(-c4cnc([C@@H]5CCCN5C(=O)[C@@H](NC(=O)OC)C(C)C)[nH]4)c4c2N3CCO4)[nH]1)C(C)C ?
// result 361

###

Assay: Half life in rat at 2 mg/kg, iv or 10 mg/kg, po
Type: ADME, organism-based
Conditions: in vivo
property label: half-life (h)
Numbers only here, please. The scale is h.

// query May I ask what half-life has been recorded for COC(=O)N[C@H](C(=O)N1CCC[C@H]1c1ncc(-c2ccc3c(c2)OCC2=C3COc3cc(-c4cnc([C@@H]5CCCN5C(=O)[C@@H](NC(=O)OC)C(C)C)[nH]4)ccc32)[nH]1)C(C)C ?
// result 2.7

###

Test system: Nonstructural protein 5A (Hepatitis C virus), Q5L478 [Y93H]
Sequence (whole entry): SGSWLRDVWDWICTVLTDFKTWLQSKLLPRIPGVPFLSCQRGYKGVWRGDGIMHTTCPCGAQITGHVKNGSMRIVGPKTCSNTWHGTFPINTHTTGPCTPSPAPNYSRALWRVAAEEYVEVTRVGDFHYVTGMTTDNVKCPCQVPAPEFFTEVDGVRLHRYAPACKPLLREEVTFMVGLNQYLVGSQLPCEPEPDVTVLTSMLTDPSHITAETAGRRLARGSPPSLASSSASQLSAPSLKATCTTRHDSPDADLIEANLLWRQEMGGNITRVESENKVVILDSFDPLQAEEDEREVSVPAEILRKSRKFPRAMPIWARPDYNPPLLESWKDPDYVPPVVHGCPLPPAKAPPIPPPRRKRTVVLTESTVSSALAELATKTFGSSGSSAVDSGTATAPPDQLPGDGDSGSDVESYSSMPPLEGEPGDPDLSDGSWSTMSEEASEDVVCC
Experiment: Inhibition of HCV genotype 1a NS5A Y93H mutant after 3 day incubation by RT-PCR-cell-based HCV replicon assay
Settings: Hepatitis C virus subtype 1a
property label: EC90

// query What value of EC90 has been recorded for this entry: COC(=O)N[C@H](C(=O)N1CCC[C@H]1c1ncc(-c2ccc3c(c2)OCn2c-3cc3cc(-c4cnc([C@@H]5CCCN5C(=O)[C@@H](NC(=O)OC)C(C)C)[nH]4)ccc32)[nH]1)C(C)C
// result > 100 nM

More entries:
// query Please report the recorded EC90 for COC(=O)N[C@H](C(=O)N1CCC[C@H]1c1ncc(-c2cc3c4c(c2)CCc2cc(-c5cnc([C@@H]6CC(F)(F)CN6C(=O)[C@@H](NC(=O)OC)C(C)C)[nH]5)cc(c2-4)CC3)[nH]1)C(C)C .
// result 30.2 nM

// query Consider the compound COC(=O)N[C@H](C(=O)N1CCC[C@H]1c1ncc(-c2ccc3c(c2)OCC2=C3COc3cc(-c4cnc([C@@H]5CCCN5C(=O)[C@@H](NC(=O)OC)C(C)C)[nH]4)ccc32)[nH]1)C(C)C and give its measured EC90.
// result > 100 nM

###

Assay: AUC in rat at 10 mg/kg, po
Assay type: ADME, organism-based
Conditions: in vivo
property label: AUC (µM·h)
Please reply with the bare figure in µM·h and do not write the unit itself.

// query Any idea what its AUC is? The compound is COC(=O)N[C@H](C(=O)N1CCC[C@H]1c1ncc(-c2ccc3c(c2)OCC2=C3COc3cc(-c4cnc([C@@H]5CCCN5C(=O)[C@@H](NC(=O)OC)C(C)C)[nH]4)ccc32)[nH]1)C(C)C
// result 5.57

###

Test system: Nonstructural protein 5A (Hepatitis C virus), Q5L478 [Y93H]
Sequence (whole entry): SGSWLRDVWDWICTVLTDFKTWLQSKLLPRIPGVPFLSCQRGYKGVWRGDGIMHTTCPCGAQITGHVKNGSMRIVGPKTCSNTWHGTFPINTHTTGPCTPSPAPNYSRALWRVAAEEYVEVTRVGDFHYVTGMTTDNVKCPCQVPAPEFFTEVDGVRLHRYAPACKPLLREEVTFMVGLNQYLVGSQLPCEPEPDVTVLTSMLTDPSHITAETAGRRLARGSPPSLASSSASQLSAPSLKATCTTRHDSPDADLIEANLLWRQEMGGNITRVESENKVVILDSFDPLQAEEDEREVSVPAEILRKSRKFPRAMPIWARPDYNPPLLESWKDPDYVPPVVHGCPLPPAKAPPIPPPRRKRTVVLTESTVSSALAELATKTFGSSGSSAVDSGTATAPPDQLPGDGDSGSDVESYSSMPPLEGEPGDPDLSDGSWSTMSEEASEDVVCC
Test: Inhibition of HCV genotype 1a NS5A Y93H mutant after 3 day incubation by RT-PCR-cell-based HCV replicon assay
Conditions: Hepatitis C virus subtype 1a
property label: EC90 (nM)
Respond numerically; units are nM and should not be typed.

Use the examples below as a reference point.
// query Requested field: EC90. Item: COC(=O)N[C@H](C(=O)N1CCC[C@H]1c1ncc(-c2cc3c4c(c2)CCc2cc(-c5cnc([C@@H]6C[C@@H](F)CN6C(=O)[C@@H](NC(=O)OC)C(C)C)[nH]5)cc(c2-4)CC3)[nH]1)C(C)C
// result 22.7

// query Need EC90 of COC(=O)N[C@H](C(=O)N1CCC[C@H]1c1ncc(-c2ccc3c(c2)OC(C)C2=C3COc3cc(-c4cnc([C@@H]5CCCN5C(=O)[C@@H](NC(=O)OC)C(C)C)[nH]4)ccc32)[nH]1)C(C)C (stereo not given in full) , thanks.
// result 55.1

// query Field request: EC90 | item: COC(=O)N[C@H](C(=O)N1CCC[C@H]1c1ncc(-c2ccc3c(c2)OC(c2cccc(OC)c2)C2=C3COc3cc(-c4cnc([C@@H]5CCCN5C(=O)[C@@H](NC(=O)OC)C(C)C)[nH]4)ccc32)[nH]1)C(C)C (stereo not given in full)
// result 12

New cases:
// query # lookup: EC90 of COC(=O)N[C@H](C(=O)N1CCC[C@H]1c1ncc(-c2cc3c4c(c2)CCc2cc(-c5cnc([C@@H]6CCCN6C(=O)[C@@H](NC(=O)OC)C(C)C)[nH]5)cc(c2-4)CC3)[nH]1)C(C)C
// result 57

###

System: Nonstructural protein 5A (Hepatitis C virus), Q5L478 [Y93H]
Sequence (whole entry): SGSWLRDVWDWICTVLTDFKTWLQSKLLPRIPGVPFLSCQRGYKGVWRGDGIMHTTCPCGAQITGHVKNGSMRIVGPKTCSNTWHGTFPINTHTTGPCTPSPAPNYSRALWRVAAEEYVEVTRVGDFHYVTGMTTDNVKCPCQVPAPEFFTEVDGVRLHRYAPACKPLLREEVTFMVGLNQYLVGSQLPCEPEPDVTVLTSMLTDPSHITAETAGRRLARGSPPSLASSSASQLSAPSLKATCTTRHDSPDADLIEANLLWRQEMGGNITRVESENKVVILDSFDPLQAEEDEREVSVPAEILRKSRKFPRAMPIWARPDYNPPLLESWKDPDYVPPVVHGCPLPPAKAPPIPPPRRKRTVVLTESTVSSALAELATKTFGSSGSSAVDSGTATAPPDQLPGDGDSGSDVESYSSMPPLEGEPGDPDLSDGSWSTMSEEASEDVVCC
Assay: Inhibition of HCV genotype 1a NS5A Y93H mutant after 3 day incubation by RT-PCR-cell-based HCV replicon assay
Conditions: Hepatitis C virus subtype 1a
Measured EC90 values are reported for all entries that follow.
Numbers only here, please. The scale is nM.

// query State the recorded EC90 for this entry: COC(=O)N[C@H](C(=O)N1CCC[C@H]1c1ncc(-c2ccc3c(c2)Oc2ccc(-c4cnc([C@@H]5CCCN5C(=O)[C@@H](NC(=O)OC)C(C)C)[nH]4)c4occ-3c24)[nH]1)C(C)C
// result 132

// query // returns reported EC90 for input COC(=O)N[C@H](C(=O)N1CCC[C@H]1c1ncc(-c2ccc3c(c2)Oc2ccc(-c4cnc([C@@H]5CC(F)(F)CN5C(=O)[C@@H](NC(=O)OC)C(C)C)[nH]4)c4ccn-3c24)[nH]1)C(C)C
// result 22

Next:
// query EC90 for COC(=O)N[C@H](C(=O)N1CCC[C@H]1c1ncc(-c2ccc3c(c2)Oc2ccc(-c4cnc([C@@H]5CCCN5C(=O)[C@@H](NC(=O)OC)C(C)C)[nH]4)c4c2N3CCC4)[nH]1)C(C)C ?
// result 441
